Test: Cytotoxicity assay (CellTiter-Glo, 72 h), Jurkat
Format: cell-based
Details: human, Jurkat cells (T lymphoma), conc 6.25 uM, raw data (replicates)
Protocol: Jurkat cells were cultured in RPMI1640 medium supplemented with 10% foetal bovine serum, penicillin (50 U/ml), streptomycin (50 μg/ml), and Glutamax. SKOV-3 cells were cultured in DMEM medium supplemented with 10% fetal bovine serum, penicillin (50 U/ml), and streptomycin (50 μg/ml). […] Cell viabilities were measured using a CellTiter-Glo luminescent cell viability assay and EnVision multilabel plate reader.
I'd be grateful if you could share measured viability at 72 h, 6.25 uM for these entries.
One number for each entry, in %.

Some entries whose results are on file:
compound | viability at 72 h, 6.25 uM / %
COC1CC2CCC(C)C(O)(O2)C(=O)C(=O)N2CCCCC2C(=O)OC(C(C)CC2CCC(O)C(OC)C2)CCC(C)C=C(C)C(O)C(OC)C(=O)C(C)CC(C)C=CC=CC=C1C (stereo not shown) | 20.4
CO[C@H]1C[C@@H]2CC[C@@H](C)[C@@](O)(O2)C(=O)C(=O)N2CCCC[C@H]2C(=O)O[C@H]([C@H](C)C[C@@H]2CC[C@@H](O)[C@H](OC)C2)CC(=O)[C@H](C)/C=C(\C)[C@@H](O)CC(=O)[C@H](C)C[C@H](C)/C=C/C=C(C)/C=C/1C | 93.3
CO[C@@H]1/C=C/C=C/[C@@H](C)C[C@@H](C)C(=O)C[C@H](O)/C(C)=C/[C@@H](C)C(=O)C[C@@H]([C@H](C)C[C@@H]2CC[C@@H](O)[C@H](OC)C2)OC(=O)[C@@H]2CCCCN2C(=O)C(=O)[C@]2(O)O[C@@H](CC[C@H]2C)C1 | 31.2

Turning now to a further record.
**Q:** Please give the measured viability at 72 h, 6.25 uM for this compound: CO[C@H]1C[C@@H]2CC[C@@H](C)[C@@](O)(O2)C(=O)C(=O)N2CCCC[C@H]2C(=O)O[C@H]([C@H](C)C[C@@H]2CC[C@@H](O)[C@H](OC)C2)CC(=O)[C@H](C)/C=C(\C)[C@@H](O)CC[C@H](C)/C=C/C=C/C=C/1C
**A:** 24.1
